- ASSAY INFO: ATG_SREBP_CIS: Attagene CIS-FACTORIAL HepG2 Assay for human Sterol Regulatory Element Binding (SREBP) (AID 2282962)
- RUN PARAMETERS: HepG2 Attagene cis-factorial SREBP reporter, mRNA; actives raise or lower the signal
Activity calls are given as the source filed them. How the source made its calls: active means hit-call score of the fitted dose curve at least 0.9, where 1 is the maximum; inactive means score below 0.9.
MEASURED ENDPOINT: outcome

>>> print(df.to_string())
                         compound  measured_endpoint  reported_measurement
0                          OCCCBr            outcome              inactive
1  CCCCCOC(=O)c1ccccc1C(=O)OCCCCC            outcome              inactive
2                      N#CC(Br)Br            outcome              inactive
3     CC(O)CCO (stereo not given)            outcome              inactive

Then there is this compound:
Return reported outcome. Input compound: O=C(O)C1C2CCC(O2)C1C(=O)O (stereo not given)
inactive

====

- Read-out: Fatty acid synthase (Homo sapiens)
- ASSAY INFO: LTEA_HepaRG_FASN: Life Technologies and Expression Analysis (LTEA) Assay for Fatty Acid Synthase (FASN) using HepaRG (AID 2283448)
- RUN PARAMETERS: mRNA level, 48 h; actives raise or lower the signal
Activity calls are given as the source filed them. Rule for the calls: active = hit-call score of the fitted dose curve at least 0.9, where 1 is the maximum; inactive = score below 0.9.
A correct response names exactly one class from active, inactive

GET /call?item= O=C1CCCO1 returns the recorded outcome of this test.
inactive

GET /call?item= ClC1=C(Cl)C2(Cl)C3C(Cl)C=CC3C1(Cl)C2(Cl)Cl (stereo unspecified) returns the recorded outcome of this test.
inactive

GET /call?item= CCN(CC)CCO returns the recorded outcome of this test.
inactive

GET /call?item= C1=Cc2cccc3cccc1c23 returns the recorded outcome of this test.
inactive

GET /call?item= N#CC(Br)Br returns the recorded outcome of this test.
inactive

GET /call?item= C[N+](C)(C)CC1CO1 (stereo unspecified) returns the recorded outcome of this test.
inactive

GET /call?item= Oc1ccccc1Cl returns the recorded outcome of this test.
inactive

GET /call?item= CN(C)C(=O)Nc1ccc(Cl)cc1 returns the recorded outcome of this test.
inactive

GET /call?item= N#CC(Br)(Br)C(N)=O returns the recorded outcome of this test.
inactive

GET /call?item= Cc1cc(N=Nc2ccccc2C)ccc1N returns the recorded outcome of this test.
active

GET /call?item= CCCSC(=O)N(CCC)CCC returns the recorded outcome of this test.
inactive

GET /call?item= ClC1=C(Cl)[C@]2(Cl)[C@H]3[C@H]([C@@H]4C=C[C@H]3C4)[C@@]1(Cl)C2(Cl)Cl returns the recorded outcome of this test.
active

GET /call?item= ClCCOCCCl returns the recorded outcome of this test.
inactive

GET /call?item= CC(O)CCO (stereo unspecified) returns the recorded outcome of this test.
inactive

GET /call?item= O=[N+]([O-])c1ccc(Oc2ccc(Cl)cc2Cl)cc1 returns the recorded outcome of this test.
active

GET /call?item= c1ccc2c(c1)oc1ccccc12 returns the recorded outcome of this test.
inactive

GET /call?item= CC(C)COC(=O)c1ccccc1C(=O)OCC(C)C returns the recorded outcome of this test.
inactive

GET /call?item= COc1cc(C=O)cc2c1[C@H](COC(N)=O)[C@]1(OC(C)=O)ON2C[C@H]2[C@@H]1N2C(C)=O returns the recorded outcome of this test.
inactive

GET /call?item= CN(C)c1ccc(C(=O)c2ccc(N(C)C)cc2)cc1 returns the recorded outcome of this test.
inactive

GET /call?item= Clc1ccc(Cl)c(Cl)c1 returns the recorded outcome of this test.
inactive

GET /call?item= O=C(Nc1ccccc1)c1ccccc1I returns the recorded outcome of this test.
active

GET /call?item= CCCCCCCCCCCCCN1CC(C)OC(C)C1 (stereo unspecified) returns the recorded outcome of this test.
inactive

GET /call?item= CCC(C)c1ccc(O)cc1 (stereo unspecified) returns the recorded outcome of this test.
inactive

GET /call?item= CCN(CC)N=O returns the recorded outcome of this test.
inactive

GET /call?item= CC(C)(C)OOC(=O)c1ccccc1 returns the recorded outcome of this test.
inactive

GET /call?item= Cc1ccc(N)cc1 returns the recorded outcome of this test.
inactive

GET /call?item= Nc1ccc(Cl)cc1N returns the recorded outcome of this test.
active

GET /call?item= Clc1ccc(C(c2ccc(Cl)cc2)C(Cl)Cl)cc1 returns the recorded outcome of this test.
active

GET /call?item= CCOC(=O)[C@]1(c2ccccc2)Oc2ccccc2[C@@H]1N returns the recorded outcome of this test.
active

GET /call?item= CCCCCOC(=O)c1ccccc1C(=O)OCCCCC returns the recorded outcome of this test.
inactive

GET /call?item= OCCCl returns the recorded outcome of this test.
inactive
